Each recorded value in this set is attributed to the NIST ThermoML archive (doi:10.1021/acs.jced.5b00860).

Conditions: 298.15 K, Maximal bubble pressure
experimentalReadout: surface tension liquid-gas (mN/m)

> print(dat)
                                   compound         experimentalreadout  unitlabel  resultvalue
1  CCn1cc[n+](C)c1C.O=S(=O)([O-])O [1-ethyl-2,3-dimethylimidazolium hydrogen sulfate]  surface tension liquid-gas       mN/m         49.8
2  CCCCn1cc[n+](C)c1.O=P([O-])(O)O [1-butyl-3-methylimidazolium dihydrogen phosphate]  surface tension liquid-gas       mN/m         43.6
3  CCCn1cc[n+](C)c1C.O=S(=O)([O-])O [2,3-dimethyl-1-propylimidazolium hydrogen sulfate]  surface tension liquid-gas       mN/m         47.2
4  CCC[n+]1ccn(C)c1.O=P([O-])(O)O [1-methyl-3-propylimidazolium dihydrogen phosphate]  surface tension liquid-gas       mN/m         45.8
